Numbers sourced from patent US20110027290A1.

Assayed system: T1, human IL-17 (human, UniProt Q16552 20-155, limits assumed)
T1 construct: Recombinant human IL-17 from R&D Systems (#317-IL/CF, #317-IL-050); also called IL-17A; hIL-17
T1 sequence: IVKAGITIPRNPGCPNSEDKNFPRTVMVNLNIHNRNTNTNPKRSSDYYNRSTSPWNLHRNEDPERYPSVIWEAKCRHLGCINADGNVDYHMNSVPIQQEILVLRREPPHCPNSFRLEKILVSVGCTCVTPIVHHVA
Measurement description: SPR (BIACORE 2000), mAb captured on Protein A, IL-17 injected, 25 C, 1:1 with mass transfer model;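 further: CM4 chip with immobilized Protein A, HBS-EP running buffer pH 7.4, IL-17 titrated downward from 10 nM in twofold steps, 20 min dissociation phase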

Binder	Kd (pM)
mAb 131 (full-length, IgG4 Fc region) (antibody, V domains shown) VH: QVQLVQSGAEVKKPGSSVKVSCKASGYSFTDYHIHWVRQAPGQGLEWMGVINPEYGTTDYNQRFKGRVTITADESTSTAYMELSSLRSEDTAVYYCARYDYFTGTGVYWGQGTLVTVSS VL: DIVMTQTPLSLSVTPGQPASISCRSSKSLVHSRGNTYLHWYLQKPGQSPQLLIYKVSNRFIGVPDRFSGSGSGTDFTLKISRVEAEDVGVYYCSQSTHYPFTFGQGTKLEIK	2.9
